- System: U2OS
- assay remarks: Multiplex assay against U2OS
- Assay type: toxicity, cell-based
- applied conditions: human, 12 h, 1 µM, compound concentration 1 uM, replicate 2
Reported Population Mitotic Cells (%) values for a set of molecules
Use % as the unit, but write only the number.

The following molecules have reported results that may help.
Here CNC(=O)Nc1ccc(-c2nc(N3CC4CCC(C3)O4)c3cnn(C4CCC5(CC4)OCCO5)c3n2)cc1 was tested on U2OS, and its Population Mitotic Cells (%) came to 100

Here COc1cc2ncn(-c3cc(OCc4ccccc4C(F)(F)F)c(C(N)=O)s3)c2cc1OC [GW843682X] was tested on U2OS, and its Population Mitotic Cells (%) came to 50

Further cases:
Here O=c1[nH]c2ccccc2n1C1CCN(Cc2ccc(-c3[nH]c4cc5ncnc5cc4nc3-c3ccccc3)cc2)CC1 was tested on U2OS, and its Population Mitotic Cells (%) came to 62

Here CC(C)CC(=O)Nc1[nH]nc2c1CN(C(=O)C1CCN(C)CC1)C2(C)C was tested on U2OS, and its Population Mitotic Cells (%) came to 80

Here Cc1ccc2c(c1)c1c(n2CCc2ccc(C)nc2)CCN(C)C1 [LATREPIRDINE] was tested on U2OS, and its Population Mitotic Cells (%) came to 0
